- Test system: NCI/ADR-RES ovarian
- protocol notes: NCI-60 one-dose screen, 48 h
- details: 10 µM
Compounds without any hit were thinned out: in the full panel of roughly 83,000, 20% have a hit. The source made the active and inactive calls. How the source made its calls: active means growth percent below 10; inactive means the rest.
Possible outcomes: YES = active, NO = inactive

structure	target or system	class name
N#C[Se]CC(=O)Nc1cccc(C(F)(F)F)c1	NCI/ADR-RES ovarian	YES
C[C@H]1[C@H](OC(=O)CCC(=O)Nc2cnccn2)O[C@@H]2OC3(C)CC[C@H]4[C@H](C)CC[C@@H]1[C@@]24OO3	NCI/ADR-RES ovarian	NO
O=C(/C=C/c1ccc(Cl)cc1Cl)c1nc2ccccc2n1Cc1ccc(F)cc1	NCI/ADR-RES ovarian	NO
C[C@H]1[C@H](OC(=O)CCC(=O)N(CCCc2cn(-c3ccc(CN4CCOCC4)cc3)nn2)CCNc2ccnc3cc(Cl)ccc23)O[C@@H]2OC3(C)CC[C@H]4[C@H](C)CC[C@@H]1[C@@]24OO3	NCI/ADR-RES ovarian	NO
Cc1ccc2[nH]c(=S)n(-c3ccc(F)cc3)c(=O)c2c1	NCI/ADR-RES ovarian	NO
CC(C)N=C([Se])NC(=O)c1ccccc1	NCI/ADR-RES ovarian	YES
O=C(/C=C/c1ccc(Cl)cc1)c1nc2ccccc2n1Cc1ccc(F)cc1	NCI/ADR-RES ovarian	YES
O=C(NCCCCC(c1ccc(F)cc1)c1ccc(F)cc1)Nc1ccc([N+](=O)[O-])c(C(F)(F)F)c1	NCI/ADR-RES ovarian	YES

----------
- Test system: MDA-MB-468 breast
- protocol notes: NCI-60 one-dose screen, 48 h
- details: 10 µM unless noted
Compounds without any hit were thinned out: in the full panel of roughly 83,000, 20% have a hit. The source made the active and inactive calls. Rule for the calls: active = growth percent below 10; inactive = the rest.
Outcome codes: Y = active, N = inactive

compound	class name
C/C(=C(\c1ccc(OCCN2CCOCC2)cc1)c1ccc(OC(=O)Cc2ccccc2)cc1)c1ccc(Cl)cc1	N
C#CC[Se]C(=O)c1ccc(C(=O)[Se]CC#C)s1	N
Clc1ccc(CO/N=C(\Cn2ccnc2)c2ccc(Cl)cc2Cl)c(Cl)c1	Y
CCN(CC)c1ccc2c(c1)OC(N)=C(C#N)C2c1cc(OC)c2c(c1)OCO2 (stereo not given)	Y
CCOC(=O)C1=C(Nc2ccccc2)C(=O)OC12C(=O)Nc1ccccc12 (stereo not given)	N
CC12CC[C@H](O)C=C1/C(=N/O)CC1C2CCC2(C)C1CC[C@@H]2O (stereo not given in full)	N
COC(=O)[C@@H](C)C[C@H](Cc1ccccc1)NC(=O)c1nc([C@@H](C[C@H](C(C)C)N(C)C(=O)[C@@H](NC(=O)[C@H]2C[C@H](O)CCN2C)C(C)C)OC(C)=O)sc1C(C)C	Y
C[C@]12CCc3sc(Nc4ccc(F)cc4F)nc3C1=CC[C@@H]1[C@@H]2CC[C@]2(C)C(=O)CC[C@@H]12	N
Fc1ccc2c(c1)c(-c1nc(-c3c[nH]c4ncccc34)cs1)cn2CCN1CCOCC1	N
CC(=O)O[C@@H]1C2=C(C)C3(CC3)[C@@](C)(O)C(=O)C2=C[C@@]1(C)CO	Y
O=C(CBr)Nc1ccccc1	N
Cc1ccc(S(=O)(=O)F)cc1C(=O)O	N
O=C(CCCc1ccc(N(CCCl)CCCl)cc1)OCc1ccccc1	N
COP(=S)(N1CC1)N1CC1	N
C=CC(=O)NC(O)C(Cl)(Cl)Cl (stereo not given)	N
CC[C@H](C)[C@H](NC(=O)[C@H]1CCCCN1C)C(=O)N(C)[C@H](C[C@@H](OC(C)=O)c1cccc(C(=O)N[C@@H](Cc2ccccc2)C[C@H](C)C(=O)OC)n1)C(C)C	N
O=S(=O)(Cl)c1ccccc1 (tested in a mixture with another compound)	N
CCCn1cc2c3c(cccc31)[C@H]1C[C@@H](C)CN(C)[C@@H]1C2	N
CN(C)C(=O)Oc1ccccc1	N
CCc1ccccc1[C@@H]1C[C@]2(C)CCO[C@@H]2OO1	N

----------
- Tested on: 786-0 renal
- protocol notes: NCI-60 one-dose screen, 48 h (100 = growth as untreated, 0 = no growth, -100 = all killed)
- details: 10 µM
- Method: Cells are grown in 96 well plates and exposed to the test compound for 48 hours. Compounds are tested at a single concentration, which is 10^-5 M for most compounds. The reported endpoint is percent growth (GI% or GIPRCNT), where numbers from 0 - 100% represent growth inhibition, and numbers from -100% - 0 represent cell death. For example, a value of 40 represents 60% growth inhibition. A value of 0 means no net growth occurred over the course of the experiment. […]
The panel holds about 83,000 compounds, 20% with a hit somewhere; the sample as a whole holds those more often.

compound	growth / %
CC[C@]12C=CCN3CC[C@@]4(c5ccc(OC)cc5N(C)[C@H]4[C@@](O)(C(=O)OC)[C@@H]1OC(=O)CCCC[P+](c1ccc(C)cc1)(c1ccc(C)cc1)c1ccc(C)cc1)[C@@H]32	-91
N#C[Se]CC(=O)Nc1cccc(C(F)(F)F)c1	-54
CN(C)CCc1cn(C2CCC2)c2cccc(O)c12	50
O=C(/C=C/c1ccc(Cl)cc1)c1nc2ccccc2n1Cc1ccc(F)cc1	5.13
O=C(/C=C/c1ccco1)c1nc2ccccc2n1Cc1ccc(F)cc1	67.6
C=CCN=C([Se])NC(=O)c1ccc2c(c1)OCO2	85.8
CC[C@]12C=CCN3CC[C@@]4(c5ccc(OC)cc5N(C)[C@H]4[C@@](O)(C(=O)OC)[C@@H]1OC(=O)CCCC[P+](C1CCCCC1)(C1CCCCC1)C1CCCCC1)[C@@H]32	-36
CC(=C\C(=O)Oc1ccc2c3c1OC1C(O)CCC4(O)C(C2)N(CC2CCC2)CCC314)/C=C1\CCCc2ccccc21 (stereo not drawn)	45.1

----------
- Tested on: HS 578T breast
- protocol notes: NCI-60 one-dose screen, 48 h (100 = growth as untreated, 0 = no growth, -100 = all killed)
- details: 10 µM
This is part of a sample that, as a whole, favours compounds with a hit. Of some 83,000 tested, about 20% had one in any assay.
endpoint: growth (%)

molecule	endpoint	observed value
CN(C)CCc1cn(C2CCC2)c2cccc(O)c12	growth	47.7
Cc1c2oc3c(C)ccc(C(=O)N[C@@H]4C(=O)N[C@H](C(C)C)C(=O)N5CCC[C@H]5C(=O)N(C)CC(=O)N(C)[C@@H](C(C)C)C(=O)OC4C)c3nc-2c(C(=O)N[C@@H]2C(=O)N[C@H](C(C)C)C(=O)N3CC(=O)C[C@H]3C(=O)N(C)CC(=O)N(C)[C@@H](C(C)C)C(=O)OC2C)c(N)c1=O (some centres not stated)	growth	5.64
CCOP(=O)(CC(F)(F)C(F)(F)F)OCC	growth	82.2
COc1cc2cc(C(=O)N3C[C@@H](CCl)c4c3cc(OC(=O)N3CCN(C)[C@@H]5CSSC[C@H]53)c3ccccc43)[nH]c2c(OC)c1OC	growth	-36
COc1cc2cc(C(=O)N3C[C@@H](CCl)c4c3cc(OC(=O)N3CCN(C(=O)CCC(=O)N5CCN(C)CC5)[C@@H]5CSSC[C@@H]53)c3ccccc43)[nH]c2c(OC)c1OC	growth	-15.6
COC(=O)C[C@](O)(CCCC(C)C)C(=O)O[C@H]1C(OC)=C[C@@]23CCCN2CCc2cc4c(cc2[C@@H]13)OCO4	growth	-4.94
CC1=C(CCC=O)C2=C(C)C3(CC3)[C@@](C)(O)C(=O)C2=C1	growth	-8.94

----------
- Tested on: MOLT-4 leukemia
- protocol notes: NCI-60 one-dose screen, 48 h (100 = growth as untreated, 0 = no growth, -100 = all killed)
- details: 10 µM
Compounds without any hit were thinned out: in the full panel of roughly 83,000, 20% have a hit.

compound	growth, %
COCCOCCOCCOc1ccc(-n2cc(CCCN(CCNc3ccnc4cc(Cl)ccc34)C(=O)CCC(=O)O[C@@H]3O[C@@H]4OC5(C)CC[C@H]6[C@H](C)CC[C@@H]([C@H]3C)[C@@]46OO5)nn2)cc1	7.21
O=C(NC([Se])=NC1CCCCC1)c1ccccc1	57.4
COc1ccc(OC)c(/C=C/C(=O)c2nc3ccccc3n2Cc2ccc(F)cc2)c1	-6.12
CC(=O)Oc1ccccc1C(=O)NC([Se])=NC1CCCCC1	29.4
COC(=O)c1ccc(-n2cc(CCCN(CCNc3ccnc4cc(Cl)ccc34)C(=O)CCC(=O)O[C@@H]3O[C@@H]4OC5(C)CC[C@H]6[C@H](C)CC[C@@H]([C@H]3C)[C@@]46OO5)nn2)cc1	-13.5
CCOP(=O)(CC(F)(F)C(F)(F)F)OCC	4
C[C@H]1[C@@H](CC(=O)N[C@@H](Cc2coc3ccccc23)B(O)O)O[C@@H]2OC3(C)CC[C@H]4[C@H](C)CC[C@@H]1[C@@]24OO3	8.41
C=CCN=C([Se])NC(=O)c1ccc2c(c1)OCO2	107
COc1cc2cc(C(=O)N3C[C@@H](CCl)c4c3cc(OC(=O)N3CCN(C)[C@@H]5CSSC[C@H]53)c3ccccc43)[nH]c2c(OC)c1OC	-27.3
N#C[Se]CC(=O)Nc1cccc(C(F)(F)F)c1	9.42
CC(C)N=C([Se])NC(=O)c1ccccc1	2.86
C[C@H]1[C@@H](Oc2ccc(-c3cn(-c4ccnc5cc(Cl)ccc45)nn3)cc2)O[C@@H]2OC3(C)CC[C@H]4[C@H](C)CC[C@@H]1[C@@]24OO3	17.5
O=C(/C=C/c1ccccc1Cl)c1nc2ccccc2n1Cc1ccc(F)cc1	-16.2
CCC[Se]C(=O)c1ccc(C(=O)[Se]CCC)s1	7.32
C=CC[Se]C(=O)c1ccc(C(=O)[Se]CC=C)s1	-13.9
C[C@H]1[C@H](OC(=O)CCC(=O)N(CCCc2cn(-c3ccc([N+](=O)[O-])cc3)nn2)CCNc2ccnc3cc(Cl)ccc23)O[C@@H]2OC3(C)CC[C@H]4[C@H](C)CC[C@@H]1[C@@]24OO3	2.71
CC[C@@]12CC(C(=O)OC)=C3Nc4cc5c(cc4[C@@]34CCN(C[C@H]3O[C@H]31)[C@@H]24)[C@@H]1[C@H](O5)[C@@H](O)[C@@]2(CC)CC(C(=O)OC)=C3Nc4cc(OC)ccc4[C@@]34CCN1[C@@H]24	-4.22
COc1cc2cc(C(=O)N3C[C@@H](CCl)c4c3cc(OC(=O)N3CCN(C)[C@@H]5CSSC[C@@H]53)c3ccccc43)[nH]c2c(OC)c1OC	3.8
C#CC[Se]C(=O)c1ccc(C(=O)[Se]CC#C)s1	101
CCOC(=O)C1=C(Nc2ccccc2)C(=O)OC12C(=O)Nc1ccccc12 (stereo unspecified)	108
COc1ccc(/C=C/C(=O)c2nc3ccccc3n2Cc2ccc(Br)cc2)cc1	20.7
COC(=O)C[C@](O)(CCC(C)C)C(=O)O[C@H]1C(OC)=C[C@@]23CCCN2CCc2cc4c(cc2[C@@H]13)OCO4	-5.07
CC12OOC(C)(OO1)C2CCC(=O)OCCNc1ccnc2cc(Cl)ccc12 (stereo unspecified)	26.1
CC[C@]12C=CCN3CC[C@@]4(c5ccc(OC)cc5N(C)[C@H]4[C@@](O)(C(=O)OC)[C@@H]1OC(=O)CCC[P+](c1ccc(C)cc1)(c1ccc(C)cc1)c1ccc(C)cc1)[C@@H]32	-45.1
O=C(/C=C/c1ccc(Br)cc1)c1nc2ccccc2n1Cc1ccc(Br)cc1	-4.04
COc1cc(OC)c(S(=O)(=O)N(CCCl)CCCl)cc1C(=O)/C=C/c1cc(OC)c(OC)c(OC)c1	-1.79
CC[C@]12C=CCN3CC[C@@]4(c5ccc(OC)cc5N(C)[C@H]4[C@@](O)(C(=O)OC)[C@@H]1OC(=O)CCCC[P+](C1CCCCC1)(C1CCCCC1)C1CCCCC1)[C@@H]32	-5.16
CC12OOC(C)(OO1)C2CCC(=O)NCCNc1ccnc2cc(Cl)ccc12 (stereo unspecified)	98.6
COC(=O)CCn1c(-c2ccc(-n3cc(-c4ccc(O[C@H]5O[C@@H]6OC7(C)CC[C@H]8[C@H](C)CC[C@@H]([C@H]5C)[C@@]68OO7)cc4)nn3)cc2)nc2ccccc21	11
O=C(/C=C/c1ccc(Cl)cc1Cl)c1nc2ccccc2n1Cc1ccc(F)cc1	4.16
CC(C)C[C@H](NC(=O)CNC(=O)C[C@H]1O[C@@H]2OC3(C)CC[C@H]4[C@H](C)CC[C@@H]([C@H]1C)[C@@]24OO3)B(O)O	1.81
